- System: MILI (PIWIL2) piRISC loaded with L1MC piRNA (26 nt);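 note: 1 nM active piRISC with 0.1 nM target library at 33 °C single turnover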
- method: pre-steady-state target cleavage rate (min^-1); guide: L1MC piRNA 5'p-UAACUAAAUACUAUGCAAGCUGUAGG; higher = faster piRNA-guided slicing of the target
- testSettings: auxiliary factor: none (no GTSF1)
Label scheme for pre-steady-state target cleavage rate: lower than 0.004 is condition not met, 0.004 and above is condition met.

                      biosequence                                targetdesc              group
0  UCCUGGAUGAGCUUCCUUAGUAUUUAGUUA  MILI (PIWIL2) piRISC loaded with L1MC piRNA (26 nt)      condition met
1  UCCUGGAUGUCCAUGCAUAGUAUAUAGUUA  MILI (PIWIL2) piRISC loaded with L1MC piRNA (26 nt)  condition not met
2  UCCUGGUAGAGCAUGCAUAGUAUUUAGUUA  MILI (PIWIL2) piRISC loaded with L1MC piRNA (26 nt)      condition met
3  UCCUGGAACUGCUUGGAUAGUAUUUAGUUA  MILI (PIWIL2) piRISC loaded with L1MC piRNA (26 nt)      condition met
4  UCCUCCUAGUCCUUGCAUAGUAUUUAGUAA  MILI (PIWIL2) piRISC loaded with L1MC piRNA (26 nt)  condition not met
5  UCCUCCUACACGUUGCAUAGUAUUUAGUAA  MILI (PIWIL2) piRISC loaded with L1MC piRNA (26 nt)  condition not met

Q: For this sequence, is measured pre-steady-state target cleavage rate 0.004 or higher? UCCUGGAUGAGCUUGCAUUGUAAUUAGUUA
A: condition not met

====

- Test system: MILI (PIWIL2) piRISC loaded with piRNA #1 (26 nt);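 note: 1 nM active piRISC with 0.1 nM target library at 33 °C single turnover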
- method: pre-steady-state target cleavage rate (min^-1); guide: piRNA #1 5'p-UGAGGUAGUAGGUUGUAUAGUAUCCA; higher = faster piRNA-guided slicing of the target
- testSettings: auxiliary factor: 500 nM mouse GTSF1
measurementType: pre-steady-state target cleavage rate

Worked cases, pre-steady-state target cleavage rate given:
In [3]: df
Out[3]:
                       biosequence   reading
0  GGAGACCUAACUAUUACAACCUACUACCUCA     0.099
1   GGAGACCUUACUAUACAUCCAACUACCUCA    0.0082
2   GGAGACGAUUCUUUACAACCUACUACCUCA     0.152
3    GGAGACCUAUGAUAUGUUGGUAUACCUCA  < 0.0001
4  GGAGACCUAAGCUAUACAACCUACUACCUCA     0.141

The recorded pre-steady-state target cleavage rate for entry GGAGUGGAUACUACACAACCUACUACCUCA equals 0.175

Sample GGAGACCUAUGAUUACAACCUACCUACCUCA ; pre-steady-state target cleavage rate observed: 0.00646

Looking up GGAGACGAUACUAUAGAACCUACUACGUCA , I see its pre-steady-state target cleavage rate listed as 0.0644

====

- Test system: MILI (PIWIL2) piRISC loaded with L1MC piRNA (26 nt);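 note: 1 nM active piRISC with 0.1 nM target library at 33 °C single turnover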
- method: pre-steady-state target cleavage rate (min^-1); guide: L1MC piRNA 5'p-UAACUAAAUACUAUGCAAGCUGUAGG; MIWI and MILI are mouse PIWI proteins and EfPiwi is from a freshwater sponge; tags in brackets are library labels; higher = faster piRNA-guided slicing of the target
- testSettings: auxiliary factor: 500 nM mouse GTSF1
Entries get a class label from measured pre-steady-state target cleavage rate. See ranges: c1 = under 0.02, c2 = from 0.02 up to 0.1, c3 = 0.1 and over

Completed entries (count: 2):
                       biosequence  group
0   UCCUGGAUGUCGAACGUAACUAUAUAGUUA     c1
1  UCCUGCUACAGCUCUGCAUAGUAUUUAGUUA     c3

Q: # classify by pre-steady-state target cleavage rate band: UCCUGGAUGUCCUUGCAUAGUAUUAUCAAA [g7:g19:cont:t1A]
A: c2

Q: Which bin, given its pre-steady-state target cleavage rate, does UCCUGGAACAGCUUGCAUAGUUUUUUCAAA occupy?
A: c1

Q: Which pre-steady-state target cleavage rate band matches UCCUGCUACAGCUUGGAUAGUAUAUAGUUA ?
A: c3

Q: Which category does the recorded pre-steady-state target cleavage rate put UCCUGCUACAGCUUGCAUAGUAAUAAGUUA in?
A: c3

Q: Exercise: read the entry UCCUGGAUGUGCUUGCAUAGUUUUAAGUUA and state which class it falls under.
A: c1

Q: Which category fits this record: UCCUGGAUGAACUUGCAUAGUAUUUAGUUA
A: c3

Q: Form: Item = UCCUGGAUCAGCUUGCAUAGUUUUUACUUA ; Class = ?
A: c1
